# Tested on: DENV-4 strain EDEN
# EXPERIMENTAL DETAILS: Tetravalent RT-qPCR assay Protocol A, serotype 4 EDEN
# Type: cell-based
# MEASUREMENT CONDITIONS: Dengue virus, DENV4, 72 h, RT-qPCR serotype 4 EDEN, Vero cells, day 3
Recorded EC50 values for a group of compounds are listed next.
# value in nM; strip the unit string

Worked set:
[
  {
    "COMPOUND": "COc1cc(NC(C(=O)c2c[nH]c3cc(OC)c(F)cc23)c2ccc(F)cc2OC)cc(OCCO)c1 (single isomer, unassigned)",
    "NUMERIC RESULT": 23
  },
  {
    "COMPOUND": "COc1cc(NC(C(=O)c2c[nH]c3c(F)c(F)ccc23)c2ccc(F)cc2OC)cc(OCCO)c1 (single isomer, unassigned)",
    "NUMERIC RESULT": 24
  }
]

API: the following record is the query input.
INPUT: Identify EC50 associated with the compound COc1cc(NC(C(=O)c2c[nH]c3c(C)c(Cl)ccc23)c2ccc(F)cc2OC)cc(OCCO)c1 (single isomer, unassigned)
OUTPUT: 16

###

Recorded CC50 values for a group of compounds are listed next.
# EXPERIMENTAL DETAILS: in vitro
# Format: cell-based
# MEASUREMENT CONDITIONS: African green monkey, CC50
# Procedure: In parallel, the toxicity of the compounds was assessed on the same plates. Once the read-out for the eGFP signal was done, 10 μL of resazurin, a cell viability stain, was added to all wells of the 384-well plates. […] Next, the plates were measured on an Infinite reader (Tecan) using an excitation wavelength of 530 nm. […] Finally, the selectivity index (SI) was determined for the compounds, which was calculated as followed: SI=CC50/EC50.
# value in µM; strip the unit string

[
  {
    "COMPOUND": "COc1cc(NC(C(=O)c2c[nH]c3c(C)c(OC)ccc23)c2ccc(F)cc2OC)cc(OCCO)c1 (racemic) [Compound 11]",
    "UNIT LABEL": "µM",
    "CC50": 10
  },
  {
    "COMPOUND": "COc1cc(NC(C(=O)c2c[nH]c3c(Cl)c(OC)ccc23)c2ccc(F)cc2OC)cc(OCCO)c1 (single isomer, unassigned) [Compound 8B]",
    "UNIT LABEL": "µM",
    "CC50": 9.1
  },
  {
    "COMPOUND": "COc1cc(NC(C(=O)c2c[nH]c3c(C)c(F)ccc23)c2ccc(F)cc2OC)cc(OCCO)c1 (racemic) [Compound 2]",
    "UNIT LABEL": "µM",
    "CC50": 7
  },
  {
    "COMPOUND": "COc1cc(NC(C(=O)c2c[nH]c3cc(F)ccc23)c2ccc(F)cc2OC)cc(OCCO)c1 (single isomer, unassigned) [Compound 1B]",
    "UNIT LABEL": "µM",
    "CC50": 12
  },
  {
    "COMPOUND": "COc1cc(NC(C(=O)c2c[nH]c3c(Cl)c(OC)ccc23)c2ccc(F)cc2OC)cc(OCCO)c1 (racemic) [Compound 8]",
    "UNIT LABEL": "µM",
    "CC50": 6.8
  }
]

INPUT: Identify CC50 associated with the compound COc1cc(NC(C(=O)c2c[nH]c3c(C)c(OC)ccc23)c2ccc(F)cc2OC)cc(OCCO)c1 (single isomer, unassigned) [Compound 11B]
OUTPUT: 12

INPUT: Identify CC50 associated with the compound COc1cc(NC(C(=O)c2c[nH]c3c(F)c(F)ccc23)c2ccc(F)cc2OC)cc(OCCO)c1 (single isomer, unassigned) [Compound 5A]
OUTPUT: 7.4

INPUT: Identify CC50 associated with the compound COc1cc(NC(C(=O)c2c[nH]c3cc(OC)c(C)cc23)c2ccc(F)cc2OC)cc(OCCO)c1 (single isomer, unassigned)
OUTPUT: 7.5

All figures here come from patent US10206902B2.
